System: CAKI-1 renal
assay.protocol: NCI tumour cell line growth inhibition, 48 h
Use True when the recorded TGI is no lower than 50 µM; use False when it is lower.

Determine whether measured TGI meets or exceeds 50 µM for COc1cc(/C=C2\CCCCC3=C2N=C2SC(C)=CN2C3c2cc(OC)c(OC)c(OC)c2)cc(OC)c1OC (stereo unspecified)
True

How about `COc1cc2c(cc1OCCCN1CCN(CCCOc3cc4c(cc3OC)C(=O)N3CC(F)(F)C[C@H]3C=N4)CC1)N=C[C@@H]1CC(F)(F)CN1C2=O` ?
False

// repeat for `CCSc1nc(N=Cc2ccccc2O)c2cn[nH]c2n1` and report
True

Would you kindly repeat that for COc1cccc2c1OC(c1cccc3ccccc13)C([N+](=O)[O-])=C2 (stereo unspecified) ?
False

Check O=C1CSC2(CC(/C=C/c3cccs3)=NN2c2cccc(S(=O)(=O)O)c2)N1c1nc2ccccc2s1 (stereo unspecified) too.
True

Thanks! And `CC(=O)N/C(=C\c1ccccc1/C=C(\NC(C)=O)c1nc2cc(C)c(C)cc2[nH]1)c1nc2cc(C)c(C)cc2[nH]1` ?
True

For `O=c1[nH]c(-c2cccc(F)c2)cc2cc(F)ccc12` then?
True

Also, `C/C1=C\[C@H](C)C[C@H](C)OC(=O)[C@H](C)NC(=O)[C@@H](Cc2ccc(O)c(Br)c2)N(C)C(=O)[C@H](C)NC(=O)[C@@H](C)C1` please.
False

Now consider `COc1c2occc2c(N)c2ccc(=O)oc12` .
True

Do the same for `Cc1ccsc1/C=N/Nc1cnccn1` please
True

And what about the molecule O=C1NC(O)CCN1C1OC(CO)C(O)C1O (stereo unspecified) ?
True

Repeat with `CC(C)(CO)CNc1nc(N)nc(Cl)c1/C=N/O`
True

Entry `O=C1/C(=C/c2ccc(Cl)cc2)CCCc2ccccc21` please
True

Can you handle `CC1(C)CCc2c(ccc(C(=O)/C=C/c3ccc(O)cc3)c2O)O1` next?
False

Item: `O=C(Nc1nc(-c2c[nH]c3ccccc23)cs1)c1n[nH]c(=O)c2ccccc12`
True

Also, `O=c1c2c(no[n+]2[O-])c2ccccc2n1-c1ccccc1` please.
False

And for `c1ccc2c(c1)CCc1c(-c3ccncc3)n[nH]c1-2` ?
True
